For each of the compounds below, state its ALANINE AMINOTRANSFERASE.
Species: Rattus norvegicus
assay_method_text: DrugMatrix - Regimen: Daily Repeat
Assay type: toxicity, organism-based, Sprague-Dawley
Design: regimen Daily Repeat, gender Male, age 6-8 weeks
assay_setup: in vivo, po, 0 mg/kg, 72 h, tissue Plasma, route oral GAVAGE, dose level Control, time 3 day, vehicle 100 % WATER
One number for each entry, in u/L.

Sample records with ALANINE AMINOTRANSFERASE:
compound="CC1COc2c(N3CCN(C)CC3)c(F)cc3c(=O)c(C(=O)O)cn1c23 (stereo not given)" recorded_metric="ALANINE AMINOTRANSFERASE" endpoint_value=62.17
compound=NCC1(CC(=O)O)CCCCC1 recorded_metric="ALANINE AMINOTRANSFERASE" endpoint_value=48.5
compound=CC1(C)S[C@@H]2[C@H](NC(=O)[C@H](N)c3ccc(O)cc3)C(=O)N2[C@H]1C(=O)O recorded_metric="ALANINE AMINOTRANSFERASE" endpoint_value=49.67
compound=Cn1cnc([N+](=O)[O-])c1Sc1ncnc2nc[nH]c12 recorded_metric="ALANINE AMINOTRANSFERASE" endpoint_value=60.33
compound=Nc1ccc(S(=O)(=O)Nc2ccnn2-c2ccccc2)cc1 recorded_metric="ALANINE AMINOTRANSFERASE" endpoint_value=54.5

Okay, here is my list. What is ALANINE AMINOTRANSFERASE for each of these?
1. CNCCC=C1c2ccccc2CCc2ccccc21
2. Fc1ccc([C@@H]2CCNC[C@H]2COc2ccc3c(c2)OCO3)cc1

[45.17, 55.67]
